What IC50 was measured for each of the following?
Molecular target: pY705-STAT3 in PBMC (Homo sapiens, UniProt P40763)
Construct: Cryopreserved Peripheral Blood Mononuclear Cells (PBMC) are from AllCells; host or cells: cryopreserved PBMC
Sequence (P40763 whole entry): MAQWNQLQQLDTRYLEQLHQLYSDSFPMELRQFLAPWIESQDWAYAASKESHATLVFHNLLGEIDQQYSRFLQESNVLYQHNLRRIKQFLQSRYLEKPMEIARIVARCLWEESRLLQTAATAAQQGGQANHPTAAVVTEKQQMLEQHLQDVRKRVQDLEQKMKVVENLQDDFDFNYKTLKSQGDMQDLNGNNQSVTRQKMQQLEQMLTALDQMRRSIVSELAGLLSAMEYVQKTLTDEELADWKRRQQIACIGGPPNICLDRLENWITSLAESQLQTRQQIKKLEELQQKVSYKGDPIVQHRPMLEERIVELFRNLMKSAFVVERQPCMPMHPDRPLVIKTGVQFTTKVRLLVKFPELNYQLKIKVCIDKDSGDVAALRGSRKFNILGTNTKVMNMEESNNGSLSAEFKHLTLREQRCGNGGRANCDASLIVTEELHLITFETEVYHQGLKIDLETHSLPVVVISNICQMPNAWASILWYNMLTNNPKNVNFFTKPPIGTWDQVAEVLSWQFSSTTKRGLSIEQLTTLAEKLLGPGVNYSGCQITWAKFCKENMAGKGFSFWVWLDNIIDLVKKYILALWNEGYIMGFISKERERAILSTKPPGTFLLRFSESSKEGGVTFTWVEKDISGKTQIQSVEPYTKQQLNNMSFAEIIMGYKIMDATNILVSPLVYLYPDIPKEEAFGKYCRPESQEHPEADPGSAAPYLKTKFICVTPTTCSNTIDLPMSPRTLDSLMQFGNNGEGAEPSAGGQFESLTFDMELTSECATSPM
Assay: MSD-pSTAT-PBMC Assay (pSTAT3, IL-6 stimulated)
Type: cell-based
Settings: PBMC, compound 3 hrs, then 10 ng/mL IL-6 for 10 min; Table 1114; read-out: pSTAT3

- compound: "CC(C)CC(=O)SCCOP(=O)(OCCSC(=O)CC(C)C)C(F)(F)c1ccc2sc(C(=O)N[C@H]3CCCC[C@H]4CC[C@@H](C(=O)N5C[C@@H](C#N)[C@H](c6cc[nH]c(=O)c6)C5)N4C3=O)cc2c1 (single isomer, unassigned)"
  testSystem: "pY705-STAT3 in PBMC (Homo sapiens, UniProt P40763)"
  experimentalValue: "100 to 1000 nM"
- compound: "CC(C)(C)C(=O)OCOP(=O)(OCOC(=O)C(C)(C)C)C(F)(F)c1ccc2sc(C(=O)N[C@H]3CCCC[C@H]4CC[C@@H](C(=O)N5CC6(CN(C(=O)Cc7ccccc7)C6)C5)N4C3=O)cc2c1"
  testSystem: "pY705-STAT3 in PBMC (Homo sapiens, UniProt P40763)"
  experimentalValue: "< 100 nM"

Turning now to a further record.
Qu. Any idea what its IC50 is? The compound is CC(C)CC(=O)SCCOP(=O)(OCCSC(=O)CC(C)C)C(F)(F)c1ccc2sc(C(=O)N[C@H]3CCCC(C)[C@H]4CC[C@@H](C(=O)N5CC(c6cccnc6)C5)N4C3=O)cc2c1 (stereo partly drawn)
Ans. < 100 nM
